target: full length recombinant Pim-3 protein (Homo sapiens, UniProt Q86V86); construct: by full length recombinant Pim-1, Pim-2, or Pim-3 protein; purchased Millipore (UK); test: Pim-3 enzyme assay (HTRF, phosphorylation of biotinylated-BAD (S112) peptide); assay type: biochemical; settings: read-out: Pim3 IC50
Measured IC50 values are reported for all entries that follow.
Note: state the figure and append the unit.

**Query** Lab note: need IC50 for COc1cc(-c2ccc3[nH]nc(-c4cncc(N5CCC(N)CC5)n4)c3c2)nc(OC)n1 on full length recombinant Pim-3 protein (Homo sapiens, UniProt Q86V86), anyone have it?
**Result** 0.001 µM

**Query** What is its IC50 for full length recombinant Pim-3 protein (Homo sapiens, UniProt Q86V86)? Entry: N[C@@H]1CCN(c2cncc(-c3c[nH]c4ccc(-c5c(F)cccc5F)cc34)n2)C1
**Result** 0.018 µM

**Query** API: value(readout= IC50, system= full length recombinant Pim-3 protein (Homo sapiens, UniProt Q86V86), query= Fc1cccc(F)c1-c1ccc2[nH]nc(-c3cncc(O[C@@H]4CNCC[C@H]4F)n3)c2c1 (single isomer, unassigned) [Example 19] )
**Result** 0.007 µM

**Query** // map NC1CCN(c2cncc(-c3c[nH]c4ccc(-c5c(F)cccc5F)nc34)c2)CC1 to recorded IC50 (system: full length recombinant Pim-3 protein (Homo sapiens, UniProt Q86V86))
**Result** 0.067 µM

###

Here, each record is paired with measured IC50 data.
molecular target: full length recombinant Pim-3 protein (Homo sapiens, UniProt Q86V86); construct: by full length recombinant Pim-1, Pim-2, or Pim-3 protein; test: Pim-3 enzyme assay (HTRF, phosphorylation of biotinylated-BAD (S112) peptide); details: read-out: Pim3 IC50
Hi! Could you send only the number? It should be in nM, unit omitted.

Guide cases for IC50, answers given:
Compound: COc1cccc(-c2ccc3[nH]nc(-c4cncc(N5CCC(N)CC5)n4)c3c2)n1
IC50 (nM): 8

Compound: CC(C)Oc1cncc(-c2ccc3[nH]cc(-c4ccc5cn[nH]c5c4)c3c2)n1
IC50 (nM): 33

Compound: C[C@H]1CCNC[C@@H]1Oc1cncc(-c2n[nH]c3ccc(-c4c(F)cccc4F)cc23)n1 [Example 195]
IC50 (nM): 7

Now, please, on to the next compound.
**Query** Query: IC50; subject: Fc1cccc(F)c1-c1ccc2[nH]cc(-c3cncc(NC4CCCCC4)n3)c2c1
**Result** 51

###

biological target: Pim-2 stably transfected into the U2OS human osteogenic sarcoma line (Homo sapiens, UniProt Q9P1W9); construct: expressed in transfected cells; host or cells: U2OS human osteogenic sarcoma line; assay: Pim cell assay, phospho-BAD normalized against total BAD, U2OS stably transfected with Pim-2; type: cell-based; conditions: U2OS cells stably transfected with Pim-2, phospho-BAD; high dose […]; read-out: Pim2_Cell_IC50; further: high dose 31.6 µM
Sequence (Q9P1W9 whole entry): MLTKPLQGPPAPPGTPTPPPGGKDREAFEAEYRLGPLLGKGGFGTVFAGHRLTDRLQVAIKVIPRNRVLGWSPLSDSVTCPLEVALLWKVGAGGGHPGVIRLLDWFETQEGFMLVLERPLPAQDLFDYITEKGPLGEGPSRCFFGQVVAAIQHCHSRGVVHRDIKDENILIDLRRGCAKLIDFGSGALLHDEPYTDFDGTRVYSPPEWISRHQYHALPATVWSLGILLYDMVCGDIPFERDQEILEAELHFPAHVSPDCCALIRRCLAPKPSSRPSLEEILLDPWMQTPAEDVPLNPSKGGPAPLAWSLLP
Documented IC50 across a set of compounds
Dear colleague, please return just the value in µM, with no unit written.

# count of solved cases: 4
Item smiles: CC(C)NC(=O)c1ccc(F)c(-c2ccc3[nH]nc(-c4cncc(N5CCC(N)CC5)n4)c3c2)c1
IC50 [µM]: 4.58

Item smiles: CCNC(=O)c1ccc(F)c(-c2ccc3[nH]nc(-c4cncc(N5CCC(N)CC5)n4)c3c2)c1
IC50 [µM]: 14.9

Item smiles: NC1CCN(c2cncc(-c3n[nH]c4ccc(-c5cccc(F)c5F)cc34)n2)CC1
IC50 [µM]: 8.82

Item smiles: NC1CCN(c2cncc(-c3n[nH]c4ccc(-c5cncc(C6CC6)n5)cc34)n2)CC1
IC50 [µM]: 1.73

**Query** Reported IC50 for COc1cc(OC)cc(-c2ccc3[nH]nc(-c4cncc(N5CCC(N)CC5)n4)c3c2)c1 : what is it?
**Result** 20.3

**Query** Return reported IC50; argument: NC1CCN(c2cncc(-c3n[nH]c4ccc(-c5cccc(F)n5)cc34)n2)CC1
**Result** 17.3

**Query** Requested read-out: IC50. Entry: CN1CCOc2cc(-c3ccc4[nH]nc(-c5cncc(O[C@@H]6CCCNC6)n5)c4c3)ccc21
**Result** 3.52

###

molecular target: Pim-1 stably transfected into the U2OS human osteogenic sarcoma line (Homo sapiens); construct: expressed in transfected cells; host or cells: U2OS human osteogenic sarcoma line; test: Pim cell assay, phospho-BAD normalized against total BAD, U2OS stably transfected with Pim-1; format: cell-based; details: U2OS cells stably transfected with Pim-1, phospho-BAD; high dose […]; read-out: Pim1_Cell_IC50
Sequence (P11309 whole entry): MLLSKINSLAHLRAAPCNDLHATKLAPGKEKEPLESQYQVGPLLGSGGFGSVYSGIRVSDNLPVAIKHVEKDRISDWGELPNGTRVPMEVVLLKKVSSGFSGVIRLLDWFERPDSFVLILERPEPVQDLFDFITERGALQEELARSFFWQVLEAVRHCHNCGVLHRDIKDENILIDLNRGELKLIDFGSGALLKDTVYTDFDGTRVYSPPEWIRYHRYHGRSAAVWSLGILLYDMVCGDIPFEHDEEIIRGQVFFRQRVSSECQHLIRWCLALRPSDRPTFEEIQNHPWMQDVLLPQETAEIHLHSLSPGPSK
pIC50: −log10 of the molar value.
Mark 0.0 for pIC50 values under 6, and 1.0 for everything at or above.

Please review the following examples before continuing.
Compound: c1ccc(-c2ccc3[nH]nc(-c4cncc(O[C@@H]5CCCNC5)n4)c3c2)cc1
Discrete label: 1.0
//
Compound: CC(C)Oc1nccc(-c2ccc3[nH]nc(-c4cncc(O[C@@H]5CCCNC5)n4)c3c2)n1
Discrete label: 1.0
//
Compound: C[C@H]1CCNC[C@@H]1Oc1cncc(-c2n[nH]c3ccc(-c4c(F)cccc4F)cc23)n1 [Example 198]
Discrete label: 1.0
//
Compound: Fc1cccc(F)c1-c1ccc2[nH]nc(-c3cncc(OC4CCNC4)n3)c2c1 (stereo not shown)
Discrete label: 0.0
//
Compound: C[C@H]1CCNC[C@@H]1Oc1cncc(-c2n[nH]c3ccc(-c4c(F)cccc4F)cc23)n1 [Example 195]
Discrete label: 1.0

**Query** Entry NC1CCN(c2cncc(-c3n[nH]c4ccc(-c5cccc(F)n5)cc34)n2)CC1 : is its pIC50 no less than 6?
**Result** 1.0

**Query** Is it the case that NC1CCN(c2cncc(-c3n[nH]c4ccc(-c5ccc6cc[nH]c6n5)cc34)n2)CC1 has pIC50 reaching or exceeding 6?
**Result** 1.0

**Query** Quick check, pIC50 >= 6? FC(F)(F)c1cccc(-c2ccc3[nH]nc(-c4cncc(O[C@@H]5CCCNC5)n4)c3c2)n1
**Result** 1.0

**Query** Item Nc1ncc(-c2ccc3[nH]nc(-c4cncc(N5CCC(N)CC5)n4)c3c2)cn1 with pIC50 of 6 or above?
**Result** 0.0

**Query** Quick check, pIC50 >= 6? NC1CCN(c2cncc(-c3n[nH]c4ccc(-c5ccccc5)cc34)n2)CC1
**Result** 1.0

**Query** Threshold query (pIC50 >= 6) on NC1CCN(c2cncc(-c3n[nH]c4ccc(-c5ccn[nH]5)cc34)n2)CC1
**Result** 0.0

**Query** Item Fc1cccc(F)c1-c1ccc2[nH]nc(-c3cncc(N4CCOCC4)n3)c2c1 with pIC50 of 6 or above?
**Result** 0.0

###

Target: full length recombinant Pim-2 protein (Homo sapiens, UniProt Q9P1W9)
Construct: by full length recombinant Pim-1, Pim-2, or Pim-3 protein; hexahistidine tag followed by a thrombin cleavage site (N); made in house; host or cells: Sf9 (baculovirus) or E. coli (pET28)
Assay: Pim-2 enzyme assay (HTRF, phosphorylation of biotinylated-BAD (S112) peptide)
Type: biochemical
Conditions: read-out: Pim2_IC50
Method: These cDNAs were used as templates in PCR reactions to produce full-length DNA clones of the PIMs. […] This step was repeated 3× and the resin was transferred to a 2.5 cm glass column. […] Fractions were analyzed by SDS-PAGE and those containing the protein of interest were pooled and concentrated. […] The final buffer conditions were as follows: 60 mM Hepes, pH 7.0, 0.05% BSA, 2 mM DTT. […] For each plate, percent of control (POC) values were calculated for each well. […]
Recorded pIC50, one value per entry.
Expect pIC50 as a plain number equal to -log10 of the molar concentration.

Compound: c1cc2[nH]nc(-c3cncc(N[C@@H]4CCCNC4)n3)c2cc1-c1cncc(C2CC2)n1
Observed value: 8.10

**Query** Which pIC50 value belongs to N#Cc1cc(-c2ccc3[nH]cc(-c4cncc(O[C@@H]5CCCNC5)n4)c3c2)ccc1F ?
**Result** 7.12

**Query** Value lookup for pIC50; key = c1cc2[nH]cc(-c3cncc(O[C@@H]4CCCNC4)n3)c2cc1-c1cncc(C2CCCN2)c1 (stereo partly shown)
**Result** 6.59

**Query** # lookup: pIC50 of Cc1nccn1-c1cccc(-c2ccc3[nH]cc(-c4cncc(O[C@@H]5CCCNC5)n4)c3c2)n1
**Result** 6.90

###

Below, each entry is listed alongside its reported IC50.
target: full length recombinant Pim-3 protein (Homo sapiens); construct: by full length recombinant Pim-1, Pim-2, or Pim-3 protein; experiment: Pim-3 enzyme assay (HTRF, phosphorylation of biotinylated-BAD (S112) peptide); conditions: read-out: Pim3 IC50
Give the value in nM but do not write nM after it.

**Query** What IC50 appears in the records for this compound with full length recombinant Pim-3 protein (Homo sapiens)? Fc1cccc(F)c1-c1ccc2[nH]nc(-c3cncc(O[C@@H]4CNCC[C@H]4F)n3)c2c1 (single isomer, unassigned) [Example 18]
**Result** 34
